# Tested on: ALPK1-dependent NFκB reporter gene activation in HEK293 cells stably expressing an NF-kB reporter (G9 cells)
# measurement description: NFκB gene reporter alkaline phosphatase assay
# Format: cell-based
# applied conditions: Homo sapiens, HEK293; read-out: NFkB assay IC50
pIC50: −log10 of the molar value.
# pIC50 >= 6 gives Fulfilled, anything below gives Not fulfilled

>  <compound>
CC(C)(c1ccc(Br)cc1)c1csc(NC(=O)NCc2ccc(N3CCNCC3)c(Cl)c2)n1

>  <category label>
Not fulfilled

$$$$
>  <compound>
CC(C)(c1ccc(Br)cc1)c1csc(NC(=O)NCc2ccc(CN3CCNCC3)c(F)c2)n1

>  <category label>
Not fulfilled

$$$$
>  <compound>
C#CC(C)(c1ccc(Br)cc1)c1csc(NC(=O)N2CC(c3ccc(N4CCNCC4)cc3)C2)n1 (centres unmarked)

>  <category label>
Fulfilled

$$$$

I'd appreciate it if you could say whether COc1ccc(C(C)(C)c2csc(NC(=O)NCCCS(C)(=O)=O)n2)cc1 has pIC50 at least equal to 6. Fulfilled

I'd appreciate it if you could say whether COc1ccc(C(C)(C)c2csc(NC(=O)NC3CCCC(O)C3)n2)cc1 (centres unmarked) has pIC50 at least equal to 6. Not fulfilled

I'd appreciate it if you could say whether C#CC(C)(c1ccc(Br)cc1)c1csc(NC(=O)N2CC(O)C2)n1 (centres unmarked) has pIC50 at least equal to 6. Fulfilled

I'd appreciate it if you could say whether C#C[C@](C)(c1ccc(F)cc1)c1csc(NC(=O)NCCO)n1 (stereo in doubt) has pIC50 at least equal to 6. Not fulfilled

I'd appreciate it if you could say whether CC(C)(c1ccc(Br)cc1)c1csc(NC(=O)NCc2ccnc(N3CCNCC3)c2F)n1 has pIC50 at least equal to 6. Not fulfilled

I'd appreciate it if you could say whether CC(C)(c1ccc(Br)cc1)c1csc(NC(=O)NCc2cccc(N3CCNCC3)n2)n1 has pIC50 at least equal to 6. Not fulfilled

I'd appreciate it if you could say whether C#C[C@](C)(c1ccc(Cl)cc1)c1csc(NC(=O)NC(CO)CO)n1 (stereo in doubt) has pIC50 at least equal to 6. Not fulfilled

I'd appreciate it if you could say whether CC(C)(c1ccc(Br)cc1)c1csc(NC(=O)NCCF)n1 has pIC50 at least equal to 6. Not fulfilled

I'd appreciate it if you could say whether COc1ccc(C(C)(C)c2csc(NC(=O)NC3CCC(O)CC3)n2)cc1 (centres unmarked) has pIC50 at least equal to 6. Not fulfilled

I'd appreciate it if you could say whether C#CC(C)(c1ccc(OC)cc1)c1csc(NC(=O)NC(C)c2ccc(N3CCNCC3)cc2)n1 (centres unmarked) has pIC50 at least equal to 6. Not fulfilled

I'd appreciate it if you could say whether C#C[C@@](C)(c1ccc(Cl)cc1)c1csc(NC(=O)N2CC(CN3CCNCC3)C2)n1 (stereo in doubt) has pIC50 at least equal to 6. Fulfilled

I'd appreciate it if you could say whether CC1CN(c2ccc(CNC(=O)Nc3nc(C(C)(C)c4ccc(Br)cc4)cs3)cc2)CC(C)N1 (centres unmarked) has pIC50 at least equal to 6. Not fulfilled

I'd appreciate it if you could say whether C#C[C@@](C)(c1ccc(Cl)cc1)c1csc(NC(=O)NCCO)n1 has pIC50 at least equal to 6. Fulfilled

I'd appreciate it if you could say whether CC(C)(c1ccc(Br)cc1)c1csc(NC(=O)NCc2cnc(N3CCN(CCO)CC3)nc2)n1 has pIC50 at least equal to 6. Not fulfilled
